Reference for the values: DBAASP

- Test system: Pseudomonas syringae pv. syringae DSM 10604
- run.description: ≥ marks a high value that may be exact or a test limit, other limits are often not marked, values filed in µg/mL are converted to µM
property.measured: MIC (µM)
# number only, unit µM dropped from output

CC(C)C[C@H](NC(=O)[C@H](CC(C)C)NC(=O)[C@H](CCCCN)NC(=O)[C@H](CCCCN)NC(=O)[C@H](CC(C)C)NC(=O)[C@H](CC(C)C)NC(=O)[C@H](CCCCN)NC(=O)[C@H](CCCCN)NC(=O)[C@H](CC(C)C)NC(=O)[C@H](C)NC(=O)[C@H](CCCCN)NC(=O)[C@H](CC(C)C)NC(=O)[C@@H](N)CC(C)C)C(N)=O: 6.57

Now for the molecule whose MIC we want.
Qu. For the molecule CC(C)C[C@H](NC(=O)[C@H](CC(C)C)NC(=O)[C@H](CCCCN)NC(=O)[C@@H](NC(=O)[C@H](CCCN=C(N)N)NC(=O)[C@H](CCCCN)NC(=O)[C@H](CCCCN)NC(=O)[C@@H](N)CCCN=C(N)N)C(C)C)C(=O)N[C@@H](CCCCN)C(=O)N[C@@H](CCCN=C(N)N)C(=O)N[C@@H](CC(C)C)C(=O)N[C@H](C(N)=O)C(C)C , give its reported MIC.
Ans. 1.63
